Values compiled from BindingDB's records for doi:10.1021/jm801343r.

IC50 values by entry
# measured_on: Dihydroorotate dehydrogenase (quinone), mitochondrial (Plasmodium falciparum (isolate 3D7))
# Sequence (Q08210 whole entry): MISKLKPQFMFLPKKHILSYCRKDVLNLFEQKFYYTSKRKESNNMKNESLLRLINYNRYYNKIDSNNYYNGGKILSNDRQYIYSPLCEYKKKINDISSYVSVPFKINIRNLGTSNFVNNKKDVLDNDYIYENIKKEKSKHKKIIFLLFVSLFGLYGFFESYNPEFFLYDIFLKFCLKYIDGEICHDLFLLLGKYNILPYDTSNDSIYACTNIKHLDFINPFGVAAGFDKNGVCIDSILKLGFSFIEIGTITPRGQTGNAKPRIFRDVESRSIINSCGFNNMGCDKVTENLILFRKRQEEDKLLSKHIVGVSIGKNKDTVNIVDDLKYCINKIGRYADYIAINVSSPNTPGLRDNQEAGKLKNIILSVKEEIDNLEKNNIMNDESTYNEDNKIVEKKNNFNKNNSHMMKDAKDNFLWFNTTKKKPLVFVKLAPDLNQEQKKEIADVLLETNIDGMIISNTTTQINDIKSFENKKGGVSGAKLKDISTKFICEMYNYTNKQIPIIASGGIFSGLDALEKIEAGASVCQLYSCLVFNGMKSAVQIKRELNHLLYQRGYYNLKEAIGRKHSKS
# test_protocol: DHODH Inhibition Assay
measured_endpoint: IC50

smiles_record	readout_value
Cc1cc(Nc2cc(C(F)(F)F)cc(C(F)(F)F)c2)n2ncnc2n1	> 100 µM
Cc1cc(Nc2c(F)c(F)c(F)c(F)c2F)n2ncnc2n1	> 100 µM
